This listing pairs compounds with measured GI50.
# System: MDA-MB-435
# Assay: NCI tumour cell line growth inhibition, 48 h
Calls of active or inactive are those of the source. Rule as the data show it: active = GI50 up to about 1.1 µM and inactive = higher.

Compound	Assay system	Test value
Cn1c(=O)c2c(nc(N3CCOCC3)n2CCCNCC(O)c2ccc(O)c(O)c2)n(C)c1=O (stereo not given)	MDA-MB-435	38.9 µM (inactive)

query: // returns reported GI50 for input Cc1cc(=O)oc2c(CNC(C(=O)O)C(C)O)c(O)ccc12 (stereo not given)
result: > 100 µM (inactive)

query: // returns reported GI50 for input CCN(CCCl)c1ccc(NC(=O)c2cc(C(=O)NCCN(C)C)cc(C(=O)Nc3ccc(N(CC)CCCl)cc3)c2)cc1
result: 8.32 µM (inactive)

query: // returns reported GI50 for input C=C1C(=O)O[C@@H]2C[C@@H](C)[C@@H]3[C@@H](OC4OC(COC(C)=O)C(O)C(O)C4O)CC(=O)[C@@]3(C)C[C@H]12 (stereo not given in full)
result: 2.26 µM (inactive)

query: // returns reported GI50 for input CC1C(O)Oc2cc3c(cc2C1c1ccccc1O)OCO3 (stereo not given)
result: 29.9 µM (inactive)

query: // returns reported GI50 for input O=C(NNC(=S)Nc1ccccc1)c1csc(NC(=S)NC2CCCCC2)n1
result: 35.5 µM (inactive)

query: // returns reported GI50 for input COC(=O)C1(Cc2ccccc2C)Cc2ccc(C)cc2C1=O (stereo not given)
result: 32.3 µM (inactive)

query: // returns reported GI50 for input CC(NC(=O)c1ccccc1)(C(=O)O)C(=O)O
result: > 100 µM (inactive)

query: // returns reported GI50 for input C[N+]1(c2ccccc2)C=C(c2ccccc2)SC1=S (stereo not given)
result: > 100 µM (inactive)

query: // returns reported GI50 for input CCc1oc2ccccc2c1C(=O)c1cc(Br)c(O)c(Br)c1
result: 29.7 µM (inactive)

query: // returns reported GI50 for input Cc1ccc(S(=O)(=O)SC/C=C\CSS(=O)(=O)c2ccc(C)cc2)cc1
result: 5.82 µM (inactive)

---

# System: NCI-H23
# Assay: NCI tumour cell line growth inhibition, 48 h
Activity calls are given as the source filed them. No stated cut-off is given here; in the data, active = GI50 up to about 1.1 µM and inactive = higher.
One label from this list, please: 1.0 (active), 0.0 (inactive)

Compound	Class
Cc1ccc(C(=O)C#Cc2cnc(O)nc2O)cc1	0.0
COC1/C=C/C(C)C(C(C)C(OC)C(C)CCC(=O)C(C)C(C/C=C/N(C)C=O)OC)OC(=O)/C=C/C=C(\C)CC(OC)CC2=CC(=O)O[C@H](C2)C(C)C(OC)CC(OC)/C=C/C(C)C(OC)C1 (stereo partly specified)	1.0
O=C(NNc1ccnc2cc(Cl)ccc12)/C(=C\c1ccccc1Cl)NC(=O)c1ccccc1	0.0
CCCCC1=C(C(=O)N2CCOCC2)C2(OCCO2)C1=O	0.0

query: Call for entry COc1ccc(C(=O)C(c2ccc(OC)cc2)C2(O)C(=O)Nc3c(C)cc(Cl)cc32)cc1 (stereo unspecified) :
result: 0.0

query: Call for entry C=CCc1cc(-c2cc(CC=C)c(O)c(CN(CCCl)CCCl)c2)cc(CN(CCCl)CCCl)c1O :
result: 0.0

---

# Tested on: SR
# Assay: NCI tumour cell line growth inhibition, 48 h
Calls of active or inactive are those of the source. No stated cut-off is given here; in the data, active = GI50 up to about 1.1 µM and inactive = higher.
One label from this list, please: t (active), f (inactive)

Would you please look over these solved cases?
Compound	Assay system	Class
CCOC(=O)CSc1c(C(=O)OCC)c(=O)n(-c2ccccc2)c(=S)n1-c1ccccc1	SR	f
COC(=O)C1(Cc2ccccc2C)Cc2ccc(C)cc2C1=O (centres undefined)	SR	f
CC(=O)Nc1ccc2cc3[nH]c4cc(NC(C)=O)ccc4c3nc2c1	SR	f
CCCCOC(=O)NC(Nc1ccc(S(=O)(=O)Nc2ncccn2)cc1)(C(F)(F)F)C(F)(F)F	SR	f

query: Call for entry Cc1ccc(C(=O)OC[C@H]2CC[C@@H](n3cc(N(C)C4CCCCC4)c(=O)[nH]c3=O)O2)cc1 :
result: f

query: Call for entry C=CCc1cccc2cc(C(=O)Nc3ccccc3)c(=N)oc12 :
result: f
